Data provenance is patent US20150329642A1.

target desc: T1, cMetECDHis (human, UniProt P08581 25-932, limits assumed, biotinylated in the cross-block ELISA of Example 17)
T1 construct: Expressed in HEK-293F cells; also called soluble cMetECDHis; biotinylated cMetECDHis
run description: cross-block ELISA; competitor 024
Description: First, the optimal coating concentrations of the tested anti-c-Met antibodies and the optimal cMetECDHis concentration were determined. Therefore, ELISA wells were coated overnight at 4° C. with anti-c-Met HuMabs serially diluted in PBS (8 μg/mL in 2-fold dilutions). […] ELISA wells were coated with anti-c-Met antibody at a sub-optimal dose as described above. […] Residual binding was expressed as a percentage relative to the binding observed in the absence of competitor antibody.
reported metric: residual binding, % of no competitor (%)
Provide the reading as a plain figure in %.

>  <binder>
anti-c-Met HuMab 035 (IgG1) (antibody, V domains shown, also called P1016-035; TH1016-035-D09) VH: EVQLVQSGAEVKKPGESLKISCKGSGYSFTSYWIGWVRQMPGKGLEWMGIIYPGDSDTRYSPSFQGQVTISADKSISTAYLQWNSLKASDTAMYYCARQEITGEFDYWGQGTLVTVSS VL: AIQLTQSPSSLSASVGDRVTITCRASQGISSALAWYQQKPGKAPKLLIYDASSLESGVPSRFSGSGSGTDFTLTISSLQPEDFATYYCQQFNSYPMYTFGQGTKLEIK

>  <reported metric>
residual binding, % of no competitor

>  <reported measurement>
121

$$$$

Entry anti-c-Met HuMab 008 (IgG1) (antibody, V domains shown, also called TH1016-008; PC1016-008) VH: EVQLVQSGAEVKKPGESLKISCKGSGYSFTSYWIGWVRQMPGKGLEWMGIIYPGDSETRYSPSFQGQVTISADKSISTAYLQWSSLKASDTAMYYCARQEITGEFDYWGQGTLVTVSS VL: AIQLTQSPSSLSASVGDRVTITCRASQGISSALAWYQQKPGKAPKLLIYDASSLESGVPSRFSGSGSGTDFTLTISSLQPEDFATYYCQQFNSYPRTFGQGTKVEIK : reported residual binding, % of no competitor = ?
103
